Experiment: NCI Yeast Anticancer Drug Screen. Data for the cln2 rad14 strain (AID 165);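 also: 0% = growth equal to vehicle treated cultures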
Conditions: S. cerevisiae cln2 rad14 strain; at 50.0 µM unless noted
About 79,000 compounds went through this panel and 15% of them were active in at least one assay; those are over-represented in the sample as a whole. The source made the active and inactive calls. Rule as the data show it: active = growth inhibition above about 70%; inactive = the rest.
Pick one: t for active, f for inactive

Solved entries (count: 10):
CCCCCCC(=O)C/C(CCC(=O)N(Cc1ccccc1)Cc1ccccc1)=N\Nc1ccc([N+](=O)[O-])cc1[N+](=O)[O-] ... f
CC1=C(C(=O)Nc2cc(=O)n(C)c(=O)n2C)C(c2cccc([N+](=O)[O-])c2)C(C(=O)Nc2cc(=O)n(C)c(=O)n2C)=C(C)N1 ... f
COC(=O)c1ccc(COC(=O)N2C=CCC2C(=O)O)cc1 (centres undefined) ... f
CCCC1OC(c2cc3c(cc2Br)OCO3)OCC1CC (centres undefined) ... f
O=C1c2ccccc2C(=O)N1CCCCCCCCCCN1C(=O)c2ccccc2C1=O ... f
CC1CCC(OC(=O)CCC2CCCCC2)CC1 (centres undefined) ... f
Nc1cnccc1N1CCN(c2cccc3ccccc23)CC1 ... t
Cc1ccc([N+](=O)[O-])cc1NC(=O)Sc1ccc(C(C)(C)C)cc1C ... f
C[C@]12C=CC(=O)C=C1CC[C@@H]1[C@@H]2C(=O)C[C@@]2(C)[C@H]1CC[C@]2(O)C(=O)COC(=O)CSc1c2ccccc2nc2ccccc12 ... f
CC(=O)c1cc([N+](=O)[O-])ccc1OCC(=O)O ... f

Problem: How was O=C(O)C1CC(=O)N(Cc2ccccc2)C1 (centres undefined) classified in this test?
Solution: f

Problem: How was COc1cccc(C#CC(=O)O)c1 classified in this test?
Solution: f

Problem: How was Cc1ccc(-c2nc3ccc(Cl)cc3[nH]2)cc1 classified in this test?
Solution: f

Problem: How was COc1cc(C(C)=O)ccc1OCOc1ccc(C(C)=O)cc1OC classified in this test?
Solution: f

Problem: How was C=C(C#N)CSc1c(Cl)c(Cl)c(Cl)c(Cl)c1Cl classified in this test?
Solution: f

---

Test: NCI Yeast Anticancer Drug Screen. Data for the cln2 rad14 strain (AID 165);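 also: 0% = growth equal to vehicle treated cultures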
Conditions: S. cerevisiae cln2 rad14 strain, active compounds read high; at 50.0 µM unless noted
Compounds without any hit were thinned out: in the full panel of roughly 79,000, 15% have a hit.
Catalogue of growth inhibition values
Write down the numeric answer in % and omit the unit.

Recorded results for 5 compounds are shown here.
CC(=O)Nc1ccc(S(=O)(=O)O)c(OC(C)=O)c1 ... -11.8
CCOc1ccc(NC(N)=O)cc1 ... -3.7
CC1(O)C2CC3CC(C2)CC1C3 (stereo unspecified) ... -59
O=C1C2=C(C(=O)C3=C1C1CCC3C1)C1CCC2C1 ... -15.2
CN1OC(=O)OC(C)(c2ccccc2)C1=O (stereo unspecified) ... 0.25

Alright, here's another compound for you.
Problem: Given the entry Nc1nnc2nc(C(C(=O)c3ccc(F)cc3)c3nc4nnc(N)n4[nH]c3=O)c(=O)[nH]n12 , report its measured growth inhibition.
Solution: 8.45

---

Assay: NCI Yeast Anticancer Drug Screen. Data for the mec2-1 strain (AID 157)
Conditions: S. cerevisiae mec2-1 strain, active compounds read high; at 50.0 µM unless noted
About 79,000 compounds went through this panel and 15% of them were active in at least one assay; those are over-represented in the sample as a whole.
measuredQuantity: growth inhibition (%)
Write down the numeric answer in % and omit the unit.

C[C@H]1CC[C@@H]2O[C@@]23C(=O)OC2OC(C)(C)[C@@H]([C@H]2O)[C@]13C ... -4.85
CCc1ccc(NC(=O)c2ccc(Cl)cc2Cl)cc1 ... 34.5
O=C(c1ccc(-c2ccccc2)cc1)c1ncc(-c2ccc(-c3ccccc3)cc2)[nH]1 ... 10.7
O=[N+]([O-])C(c1ccccc1)C(c1ccccc1)C(c1ccccc1)[N+](=O)[O-] (stereo not given) ... 6.05
CCCCC(NC(=O)C(C)NC(=O)OCc1ccccc1)C(=O)O (stereo not given) ... 6.3
COc1cc(OC)c2c(c1)C(C)(C)CCC2(C)C ... 2.9

Problem: Given the entry O=C(Oc1cccc(OC(=O)c2ccccc2O)c1)c1ccccc1O , report its measured growth inhibition.
Solution: -7.95

Problem: Given the entry CCOc1ccc(N2C(=O)/C(=C/c3ccc(N(CCC#N)CCC#N)cc3)N=C2c2cc([N+](=O)[O-])ccc2Cl)cc1 , report its measured growth inhibition.
Solution: -1.15

Problem: Given the entry CN1c2ccccc2N(C)C23N(C)c4ccccc4N(C)C12N(C)c1ccccc1N3C (stereo not given) , report its measured growth inhibition.
Solution: 1.8

Problem: Given the entry CC1(C)OC2C(/C=C\C(=O)c3ccccc3)OC(n3ccc(=O)[nH]c3=O)C2O1 (stereo not given) , report its measured growth inhibition.
Solution: 10.3
